A collection of molecules and their measured MIC
- System: Staphylococcus aureus
- procedureText: Antimicrobial activity against methicillin-resistant Staphylococcus aureus 143/6 by twofold dilution technique
- Format: functional
// return numeric value only (unit: µg/mL, not printed)

Worked examples follow.
{"columns": ["molecule", "MIC / µg/mL"],
 "data": [
  ["Cc1cc2c(c(O)c1-c1c(C)cc3c(c1O)/C(=C/NCC1COCCOCCOCCOCCOCCO1)C(=O)C(O)=C3C(C)C)/C(=C/NCC1COCCOCCOCCOCCOCCO1)C(=O)C(O)=C2C(C)C (configuration not stated)", 100],
  ["COCCOCCOCCN/N=C/c1c(O)c(O)c(C(C)C)c2cc(C)c(-c3c(C)cc4c(C(C)C)c(O)c(O)c(/C=N/NCCOCCOCCOC)c4c3O)c(O)c12", 400],
  ["Cc1cc2c(c(O)c1-c1c(C)cc3c(c1O)/C(=C/NCCC(=O)N[C@@H](Cc1c[nH]cn1)C(=O)O)C(=O)C(O)=C3C(C)C)/C(=C/NCCC(=O)N[C@@H](Cc1c[nH]cn1)C(=O)O)C(=O)C(O)=C2C(C)C", 100],
  ["Cc1cc2c(c(O)c1-c1c(C)cc3c(c1O)/C(=C/NCCc1cccs1)C(=O)C(O)=C3C(C)C)/C(=C/NCCc1cccs1)C(=O)C(O)=C2C(C)C", 50],
  ["COCCN/N=C/c1c(O)c(O)c(C(C)C)c2cc(C)c(-c3c(C)cc4c(C(C)C)c(O)c(O)c(/C=N/NCCOC)c4c3O)c(O)c12", 50]
]}

Alright, here's another molecule for you.
Query: What value of MIC has been recorded for this entry: COCCOCCN/N=C/c1c(O)c(O)c(C(C)C)c2cc(C)c(-c3c(C)cc4c(C(C)C)c(O)c(O)c(/C=N/NCCOCCOC)c4c3O)c(O)c12
Response: 400

---

A collection of compounds and their measured MIC
- Test system: Enterococcus hirae
- procedureText: Antimicrobial activity against Enterococcus hirae ATCC 10541 after 18 hrs by twofold dilution technique
- Type: functional
- condition: ATCC 10541, 18 h
// return numeric value only (unit: µg/mL, not printed)

{"columns": ["compound", "systemTested", "unitAnnotation", "MIC"],
 "data": [
  ["Cc1cc2c(c(O)c1-c1c(C)cc3c(c1O)/C(=C/NCCc1cccs1)C(=O)C(O)=C3C(C)C)/C(=C/NCCc1cccs1)C(=O)C(O)=C2C(C)C", "Enterococcus hirae", "µg/mL", 50],
  ["Cc1cc2c(c(O)c1-c1c(C)cc3c(c1O)/C(=C/NCCC(=O)N[C@@H](Cc1c[nH]cn1)C(=O)O)C(=O)C(O)=C3C(C)C)/C(=C/NCCC(=O)N[C@@H](Cc1c[nH]cn1)C(=O)O)C(=O)C(O)=C2C(C)C", "Enterococcus hirae", "µg/mL", 50],
  ["COc1ccc2[nH]cc(CCN/C=C3\\C(=O)C(O)=C(C(C)C)c4cc(C)c(-c5c(C)cc6c(c5O)/C(=C/NCCc5c[nH]c7ccc(OC)cc57)C(=O)C(O)=C6C(C)C)c(O)c43)c2c1", "Enterococcus hirae", "µg/mL", 100]
]}

Query: What value of MIC has been recorded for this entry: COCCOC(CN/N=C/c1c(O)c(O)c(C(C)C)c2cc(C)c(-c3c(C)cc4c(C(C)C)c(O)c(O)c(/C=N/NCC(OCCOC)OCCOC)c4c3O)c(O)c12)OCCOC
Response: 400

Query: What value of MIC has been recorded for this entry: Cc1cc2c(C(C)C)c(O)c(O)c(C=O)c2c(O)c1-c1c(C)cc2c(C(C)C)c(O)c(O)c(C=O)c2c1O
Response: 25

Query: What value of MIC has been recorded for this entry: Cc1cc2c(c(O)c1-c1c(C)cc3c(c1O)/C(=C/NCC1COCCOCCOCCOCCOCCO1)C(=O)C(O)=C3C(C)C)/C(=C/NCC1COCCOCCOCCOCCOCCO1)C(=O)C(O)=C2C(C)C (stereo unspecified)
Response: 100
